- Target: Proto-oncogene tyrosine-protein kinase receptor Ret (Homo sapiens, UniProt P07949); also: in the data inactive means no Kd found up to 30 µM
- Sequence (P07949 whole entry): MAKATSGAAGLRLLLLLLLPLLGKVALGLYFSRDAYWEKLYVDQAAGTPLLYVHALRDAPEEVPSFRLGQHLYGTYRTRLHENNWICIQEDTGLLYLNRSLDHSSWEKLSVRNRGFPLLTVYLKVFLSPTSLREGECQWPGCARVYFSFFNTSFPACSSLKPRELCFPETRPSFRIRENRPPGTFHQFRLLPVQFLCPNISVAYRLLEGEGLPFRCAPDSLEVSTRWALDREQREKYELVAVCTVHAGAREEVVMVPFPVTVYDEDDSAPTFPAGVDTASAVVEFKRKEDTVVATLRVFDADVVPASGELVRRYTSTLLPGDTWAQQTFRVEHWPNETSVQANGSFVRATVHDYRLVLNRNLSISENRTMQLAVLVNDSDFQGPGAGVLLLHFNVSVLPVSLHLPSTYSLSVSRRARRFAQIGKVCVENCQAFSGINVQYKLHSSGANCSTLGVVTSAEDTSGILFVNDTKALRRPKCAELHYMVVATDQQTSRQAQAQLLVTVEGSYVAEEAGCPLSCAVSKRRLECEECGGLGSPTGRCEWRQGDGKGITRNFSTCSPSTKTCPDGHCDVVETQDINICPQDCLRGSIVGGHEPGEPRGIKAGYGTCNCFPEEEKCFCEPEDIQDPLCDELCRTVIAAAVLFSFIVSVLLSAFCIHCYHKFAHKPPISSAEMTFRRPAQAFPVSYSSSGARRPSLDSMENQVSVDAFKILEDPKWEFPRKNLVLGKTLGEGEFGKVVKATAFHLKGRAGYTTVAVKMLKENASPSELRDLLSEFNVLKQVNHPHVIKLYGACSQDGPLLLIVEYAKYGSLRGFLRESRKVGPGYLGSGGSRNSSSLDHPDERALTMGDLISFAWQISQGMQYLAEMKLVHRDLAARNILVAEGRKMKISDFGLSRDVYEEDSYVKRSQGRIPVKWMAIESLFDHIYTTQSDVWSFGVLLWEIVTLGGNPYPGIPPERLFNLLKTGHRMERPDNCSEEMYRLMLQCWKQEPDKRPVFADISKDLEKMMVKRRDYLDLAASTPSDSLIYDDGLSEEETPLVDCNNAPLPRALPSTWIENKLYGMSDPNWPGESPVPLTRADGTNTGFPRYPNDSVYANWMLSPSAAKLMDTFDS
The source made the active and inactive calls.
Respond using exactly one of the listed classes: TRUE (active), FALSE (inactive)

State the result this test recorded for COc1cc(F)c(F)c(Nc2ccc(I)cc2F)c1NS(=O)(=O)C1(C[C@H](O)CO)CC1 .
FALSE

State the result this test recorded for FC(F)(F)c1ccc(CNc2ccc(Cc3c[nH]c4ncc(Cl)cc34)cn2)cn1 .
FALSE

State the result this test recorded for COc1cc2ncnc3c2cc1OCCCCCN(C)Cc1ccc(Br)cc1N3 .
TRUE

State the result this test recorded for CCN1CCN(Cc2ccc(Nc3ncc(F)c(-c4cc(F)c5nc(C)n(C(C)C)c5c4)n3)nc2)CC1 .
FALSE

---

- Target: Mitogen-activated protein kinase kinase kinase kinase 2 (Homo sapiens); also: in the data inactive means no Kd found up to 30 µM
- Sequence (Q12851 whole entry): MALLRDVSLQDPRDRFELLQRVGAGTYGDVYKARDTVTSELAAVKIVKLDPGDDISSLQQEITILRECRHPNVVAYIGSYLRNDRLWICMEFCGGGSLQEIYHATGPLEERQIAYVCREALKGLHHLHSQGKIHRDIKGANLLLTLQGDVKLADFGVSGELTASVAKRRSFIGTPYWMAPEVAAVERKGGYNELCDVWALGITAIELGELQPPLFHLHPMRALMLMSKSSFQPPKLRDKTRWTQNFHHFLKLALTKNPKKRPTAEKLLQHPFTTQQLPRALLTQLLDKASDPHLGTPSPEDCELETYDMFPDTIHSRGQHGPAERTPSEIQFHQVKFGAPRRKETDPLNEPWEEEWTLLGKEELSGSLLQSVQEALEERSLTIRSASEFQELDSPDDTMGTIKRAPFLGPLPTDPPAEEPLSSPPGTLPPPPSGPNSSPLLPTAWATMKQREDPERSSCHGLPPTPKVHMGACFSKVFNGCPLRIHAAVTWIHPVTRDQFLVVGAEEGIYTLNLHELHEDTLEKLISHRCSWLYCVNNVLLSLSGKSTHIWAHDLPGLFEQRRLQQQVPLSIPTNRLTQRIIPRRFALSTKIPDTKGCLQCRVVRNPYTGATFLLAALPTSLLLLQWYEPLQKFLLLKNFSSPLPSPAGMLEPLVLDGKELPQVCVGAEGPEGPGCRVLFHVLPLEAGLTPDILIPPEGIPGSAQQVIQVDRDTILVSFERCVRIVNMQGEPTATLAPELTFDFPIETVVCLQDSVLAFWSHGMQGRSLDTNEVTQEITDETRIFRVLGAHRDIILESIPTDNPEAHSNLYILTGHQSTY
Activity calls are given as the source filed them.
Respond using exactly one of the listed classes: y = active, n = inactive

State the result this test recorded for COc1cccc(Nc2ncnn3ccc(CN4CC[C@@H](N)[C@H](O)C4)c23)c1 .
n

State the result this test recorded for O=c1[nH]c([C@@H]2CCCN2)nc2c1oc1ccc(Cl)cc12 .
n

State the result this test recorded for CN1CCN(c2nc(C3=C(c4c[nH]c5ccccc45)C(=O)NC3=O)c3ccccc3n2)CC1 .
n

State the result this test recorded for C=CC(=O)Nc1cc(Nc2nccc(-c3cn(C)c4ccccc34)n2)c(OC)cc1N(C)CCN(C)C .
n

State the result this test recorded for COc1cc2ncnc(Nc3ccc(F)c(Cl)c3)c2cc1NC(=O)/C=C/CN1CCCCC1 [DACOMITINIB ANHYDROUS] .
n

State the result this test recorded for O=C(O)c1ccc2c(c1)nc(Nc1cccc(Cl)c1)c1ccncc12 .
n

State the result this test recorded for COCCN1CCN(Cc2ccc(-c3n[nH]c4c3C(=O)c3c(NC(=O)NN5CCOCC5)cccc3-4)cc2)CC1 .
n

State the result this test recorded for CCc1cc2c(cc1N1CCC(N3CCOCC3)CC1)C(C)(C)c1[nH]c3cc(C#N)ccc3c1C2=O .
n

State the result this test recorded for C[C@]1(O)C[C@@H](c2nc(-c3ccc4ccc(-c5ccccc5)nc4c3)c3c(N)nccn32)C1 .
y

State the result this test recorded for N#CCNC(=O)c1ccc(-c2ccnc(Nc3ccc(N4CCOCC4)cc3)n2)cc1 .
n

State the result this test recorded for CC(C)CC(=O)Nc1[nH]nc2c1CN(C(=O)C1CCN(C)CC1)C2(C)C .
n

State the result this test recorded for Cc1ccc(C(=O)Nc2ccc(Oc3cc4cnn(C)c4cc3-c3cn[nH]c3)c(F)c2)c(=O)n1-c1ccc(F)cc1 .
n

State the result this test recorded for O=C(Nc1ccc(OC(F)(F)F)cc1)c1sccc1NCc1ccnc2ccccc12 .
n

State the result this test recorded for CC[C@@](C)(Nc1ccnc(-c2c[nH]c3ncccc23)n1)C(=O)NCC(F)(F)F .
n

State the result this test recorded for FC(F)(F)c1ccc(CNc2ccc(Cc3c[nH]c4ncc(Cl)cc34)cn2)cn1 .
n

State the result this test recorded for NC(=O)c1ccc(N(C(N)=O)c2c(F)cccc2F)nc1-c1ccc(F)cc1F .
n

State the result this test recorded for COc1ccc2c(OCc3nnc4ccc(-c5ccccc5)nn34)ccnc2c1 .
n

---

- Target: Serine/threonine-protein kinase SIK2 (Homo sapiens, UniProt Q9H0K1); also: in the data inactive means no Kd found up to 30 µM
- Sequence (Q9H0K1 whole entry): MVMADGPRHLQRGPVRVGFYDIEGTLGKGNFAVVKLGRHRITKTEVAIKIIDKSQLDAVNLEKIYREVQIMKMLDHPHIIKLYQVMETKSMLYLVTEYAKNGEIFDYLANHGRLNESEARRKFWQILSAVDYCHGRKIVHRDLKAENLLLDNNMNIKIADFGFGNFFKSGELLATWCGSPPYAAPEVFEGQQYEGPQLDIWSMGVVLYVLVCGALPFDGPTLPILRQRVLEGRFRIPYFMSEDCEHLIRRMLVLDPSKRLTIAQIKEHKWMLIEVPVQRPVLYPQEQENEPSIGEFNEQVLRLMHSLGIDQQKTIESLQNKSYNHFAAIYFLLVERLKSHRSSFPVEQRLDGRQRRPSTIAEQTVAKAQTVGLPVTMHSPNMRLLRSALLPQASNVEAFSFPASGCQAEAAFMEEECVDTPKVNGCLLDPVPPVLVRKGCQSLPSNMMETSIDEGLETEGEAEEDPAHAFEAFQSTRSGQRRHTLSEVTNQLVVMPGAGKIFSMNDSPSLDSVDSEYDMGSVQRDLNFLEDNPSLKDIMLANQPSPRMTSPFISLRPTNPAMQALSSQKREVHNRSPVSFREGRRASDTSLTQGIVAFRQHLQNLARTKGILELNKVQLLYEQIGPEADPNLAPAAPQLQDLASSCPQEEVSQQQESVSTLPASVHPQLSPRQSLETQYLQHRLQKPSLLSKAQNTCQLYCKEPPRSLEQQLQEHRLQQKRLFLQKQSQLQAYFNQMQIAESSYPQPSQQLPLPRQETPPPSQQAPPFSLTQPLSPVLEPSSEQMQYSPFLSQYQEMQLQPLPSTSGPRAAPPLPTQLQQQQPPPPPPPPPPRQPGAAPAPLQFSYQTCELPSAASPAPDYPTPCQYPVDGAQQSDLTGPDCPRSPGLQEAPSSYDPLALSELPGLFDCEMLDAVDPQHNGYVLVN
Activity calls are given as the source filed them.
Respond using exactly one of the listed classes: active, inactive

State the result this test recorded for Cn1cc(-c2[nH]c3cc(NC(=O)[C@H](N)C4CCCCC4)cc4c3c2C=NNC4=O)cn1 .
active

State the result this test recorded for COc1cccc(Nc2ncnn3ccc(CN4CC[C@@H](N)[C@H](O)C4)c23)c1 .
active

State the result this test recorded for COc1cc(F)c(F)c(Nc2ccc(I)cc2F)c1NS(=O)(=O)C1(C[C@H](O)CO)CC1 .
inactive

State the result this test recorded for COc1cc2nccc(Oc3ccc(NC(=O)C4(C(=O)Nc5ccc(F)cc5)CC4)cc3)c2cc1OC [CABOZANTINIB] .
inactive

---

- Target: Ephrin type-A receptor 1 (Homo sapiens); also: in the data inactive means no Kd found up to 30 µM
- Sequence (P21709 whole entry): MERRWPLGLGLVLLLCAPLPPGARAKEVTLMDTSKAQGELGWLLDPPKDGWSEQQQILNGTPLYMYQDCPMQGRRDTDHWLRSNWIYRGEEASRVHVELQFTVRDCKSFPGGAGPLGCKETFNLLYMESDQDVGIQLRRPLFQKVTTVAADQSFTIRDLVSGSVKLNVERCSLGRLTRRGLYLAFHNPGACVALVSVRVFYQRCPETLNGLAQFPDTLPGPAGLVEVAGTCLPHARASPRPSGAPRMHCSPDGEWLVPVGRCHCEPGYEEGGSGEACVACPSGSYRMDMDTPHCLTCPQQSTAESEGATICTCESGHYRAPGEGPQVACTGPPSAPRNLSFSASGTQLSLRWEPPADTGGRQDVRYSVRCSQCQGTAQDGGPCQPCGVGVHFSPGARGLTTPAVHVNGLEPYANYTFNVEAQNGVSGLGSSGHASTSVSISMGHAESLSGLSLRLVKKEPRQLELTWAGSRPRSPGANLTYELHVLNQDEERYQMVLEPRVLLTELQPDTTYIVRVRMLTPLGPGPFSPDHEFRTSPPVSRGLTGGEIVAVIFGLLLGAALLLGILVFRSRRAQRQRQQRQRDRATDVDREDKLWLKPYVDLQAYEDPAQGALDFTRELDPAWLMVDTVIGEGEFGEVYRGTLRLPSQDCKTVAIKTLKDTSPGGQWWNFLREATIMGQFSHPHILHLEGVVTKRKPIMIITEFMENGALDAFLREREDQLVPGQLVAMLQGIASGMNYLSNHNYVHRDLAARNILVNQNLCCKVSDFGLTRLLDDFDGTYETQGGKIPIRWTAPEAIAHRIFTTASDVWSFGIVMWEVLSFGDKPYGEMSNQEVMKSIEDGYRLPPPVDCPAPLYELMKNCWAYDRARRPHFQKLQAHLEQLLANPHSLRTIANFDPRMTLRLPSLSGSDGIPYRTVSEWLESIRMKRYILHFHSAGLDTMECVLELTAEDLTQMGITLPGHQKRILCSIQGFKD
Calls of active or inactive are those of the source.
Respond using exactly one of the listed classes: yes = active, no = inactive

State the result this test recorded for O=C(NOC[C@H](O)CO)c1ccc(F)c(F)c1Nc1ccc(I)cc1F .
no

State the result this test recorded for CCc1cc2c(cc1N1CCC(N3CCOCC3)CC1)C(C)(C)c1[nH]c3cc(C#N)ccc3c1C2=O .
yes

State the result this test recorded for C#Cc1cccc(Nc2ncnc3cc4c(cc23)OCCOCCOCCO4)c1 .
no

State the result this test recorded for O=C(Nc1ccc(OC(F)(F)F)cc1)c1sccc1NCc1ccnc2ccccc12 .
no

State the result this test recorded for COCCN1CCN(Cc2ccc(-c3n[nH]c4c3C(=O)c3c(NC(=O)NN5CCOCC5)cccc3-4)cc2)CC1 .
no

State the result this test recorded for NC(=O)c1ccc(N(C(N)=O)c2c(F)cccc2F)nc1-c1ccc(F)cc1F .
no

State the result this test recorded for Cn1c(=O)c(F)c(Nc2ccc(I)cc2F)c2c(=O)n(C[C@@H](O)CO)cnc21 .
no

State the result this test recorded for COc1cc2ncnc3c2cc1OCCCCCN(C)Cc1ccc(Br)cc1N3 .
no

State the result this test recorded for CNC(=O)c1cc(COc2nnc(Nc3ccc(Cl)cc3)c3ccoc23)ccn1 .
no

State the result this test recorded for C[C@@H]1COC(Nc2ccc3ncnc(Nc4ccc(OCc5nccs5)c(Cl)c4)c3c2)=N1 .
no

State the result this test recorded for c1cc(OCCN2CCCCC2)cc(-c2n[nH]c3ccc(-c4nc[nH]n4)cc23)c1 .
no

State the result this test recorded for COc1cc(Nc2ncc(F)c(Nc3ccc4c(n3)N(COP(=O)(O)O)C(=O)C(C)(C)O4)n2)cc(OC)c1OC .
no

State the result this test recorded for COc1cc2ncnc(Nc3ccc(O)cc3)c2cc1OC .
no

State the result this test recorded for C=CCN(/C=C1/C(=O)O[C@H](COC)[C@@]2(C)C1=C(O)C(=O)C1=C2[C@H](OC(C)=O)C[C@]2(C)C(=O)CC[C@@H]12)CC=C .
no

State the result this test recorded for CCN1CCN(Cc2ccc(Nc3ncc(F)c(-c4cc(F)c5nc(C)n(C(C)C)c5c4)n3)nc2)CC1 .
no

State the result this test recorded for O=c1[nH]c([C@@H]2CCCN2)nc2c1oc1ccc(Cl)cc12 .
no

State the result this test recorded for CC1(COc2ccc3c(c2)ncn3-c2ccc3cccc(N4CCC(N)CC4)c3n2)COC1 .
no

---

Active and inactive are the calls of the source.
Measured quantity: Kd

Name the value of Kd reported for Cn1c(=O)n(-c2ccc(C(C)(C)C#N)cc2)c2c3cc(-c4cnc5ccccc5c4)ccc3ncc21 [DACTOLISIB] when tested on Protein-tyrosine kinase 2-beta (Homo sapiens). Also: in the data inactive means no Kd found up to 30 µM.
Sequence (Q14289 whole entry): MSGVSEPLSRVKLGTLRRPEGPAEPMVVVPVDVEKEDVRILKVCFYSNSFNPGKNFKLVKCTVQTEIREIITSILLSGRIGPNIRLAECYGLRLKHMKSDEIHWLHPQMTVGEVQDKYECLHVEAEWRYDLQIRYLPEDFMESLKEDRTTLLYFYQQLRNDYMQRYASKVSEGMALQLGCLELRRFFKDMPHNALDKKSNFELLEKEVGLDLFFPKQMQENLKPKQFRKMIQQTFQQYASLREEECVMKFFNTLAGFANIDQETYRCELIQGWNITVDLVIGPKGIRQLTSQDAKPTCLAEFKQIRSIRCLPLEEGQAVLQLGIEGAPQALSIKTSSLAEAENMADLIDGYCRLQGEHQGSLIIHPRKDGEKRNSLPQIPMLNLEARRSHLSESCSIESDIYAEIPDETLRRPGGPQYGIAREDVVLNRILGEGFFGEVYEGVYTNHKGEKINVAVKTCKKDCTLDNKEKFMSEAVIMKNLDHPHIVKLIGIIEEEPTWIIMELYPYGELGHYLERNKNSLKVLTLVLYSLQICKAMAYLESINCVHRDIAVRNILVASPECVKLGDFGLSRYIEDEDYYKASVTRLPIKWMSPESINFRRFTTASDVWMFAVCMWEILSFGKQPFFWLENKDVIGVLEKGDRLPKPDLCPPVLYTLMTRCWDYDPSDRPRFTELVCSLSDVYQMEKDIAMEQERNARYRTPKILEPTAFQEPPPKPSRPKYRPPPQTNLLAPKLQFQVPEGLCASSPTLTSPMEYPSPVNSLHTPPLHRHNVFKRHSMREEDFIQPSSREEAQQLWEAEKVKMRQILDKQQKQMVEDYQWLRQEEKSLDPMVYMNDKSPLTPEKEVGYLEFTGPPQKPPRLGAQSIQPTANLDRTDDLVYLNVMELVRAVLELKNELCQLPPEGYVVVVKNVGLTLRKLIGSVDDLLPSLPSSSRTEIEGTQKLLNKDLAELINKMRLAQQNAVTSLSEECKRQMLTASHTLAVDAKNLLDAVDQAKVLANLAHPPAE
> 30 µM (inactive)

Name the value of Kd reported for CCOc1ccn(-c2ccc(F)cc2)c(=O)c1C(=O)Nc1ccc(Oc2ccnc(N)c2Cl)c(F)c1 [BMS-777607] when tested on Protein-tyrosine kinase 2-beta (Homo sapiens). Also: in the data inactive means no Kd found up to 30 µM.
> 30 µM (inactive)

Name the value of Kd reported for COc1cc2ncnc3c2cc1OCCCCCN(C)Cc1ccc(Br)cc1N3 [JNJ-26483327] when tested on Protein-tyrosine kinase 2-beta (Homo sapiens). Also: in the data inactive means no Kd found up to 30 µM.
> 30 µM (inactive)

Name the value of Kd reported for Cc1cc(-c2cc(OC(=O)c3ccccc3)ccc2Cl)cc2nnc(Nc3ccc(OCCN4CCCC4)cc3)nc12 [TG100-801] when tested on Protein-tyrosine kinase 2-beta (Homo sapiens). Also: in the data inactive means no Kd found up to 30 µM.
> 30 µM (inactive)

Name the value of Kd reported for COc1cccc2cc(-c3nc([C@H]4CC[C@H](C(=O)O)CC4)n4ncnc(N)c34)[nH]c12 [OSI-027] when tested on Protein-tyrosine kinase 2-beta (Homo sapiens). Also: in the data inactive means no Kd found up to 30 µM.
> 30 µM (inactive)

Name the value of Kd reported for C=CC(=O)Nc1cc(Nc2nccc(-c3cn(C)c4ccccc34)n2)c(OC)cc1N(C)CCN(C)C [OSIMERTINIB] when tested on Protein-tyrosine kinase 2-beta (Homo sapiens). Also: in the data inactive means no Kd found up to 30 µM.
> 30 µM (inactive)

Name the value of Kd reported for Cn1c(=O)c(F)c(Nc2ccc(I)cc2F)c2c(=O)n(C[C@@H](O)CO)cnc21 [TAK-733] when tested on Protein-tyrosine kinase 2-beta (Homo sapiens). Also: in the data inactive means no Kd found up to 30 µM.
> 30 µM (inactive)

Name the value of Kd reported for C[C@]1(O)C[C@@H](c2nc(-c3ccc4ccc(-c5ccccc5)nc4c3)c3c(N)nccn32)C1 [LINSITINIB] when tested on Protein-tyrosine kinase 2-beta (Homo sapiens). Also: in the data inactive means no Kd found up to 30 µM.
> 30 µM (inactive)

Name the value of Kd reported for O[C@H]1CC[C@H](Nc2ncc3nc(Nc4c(F)cc(F)cc4F)n([C@H]4CCOC4)c3n2)CC1 [TANZISERTIB] when tested on Protein-tyrosine kinase 2-beta (Homo sapiens). Also: in the data inactive means no Kd found up to 30 µM.
> 30 µM (inactive)

Name the value of Kd reported for O=S(=O)(c1cccc2cnccc12)N1CCCNCC1 [FASUDIL] when tested on Protein-tyrosine kinase 2-beta (Homo sapiens). Also: in the data inactive means no Kd found up to 30 µM.
> 30 µM (inactive)

Name the value of Kd reported for CCN1CCN(Cc2ccc(Nc3ncc(F)c(-c4cc(F)c5nc(C)n(C(C)C)c5c4)n3)nc2)CC1 [ABEMACICLIB] when tested on Protein-tyrosine kinase 2-beta (Homo sapiens). Also: in the data inactive means no Kd found up to 30 µM.
> 30 µM (inactive)

Name the value of Kd reported for Cn1cc(-c2[nH]c3cc(NC(=O)[C@H](N)C4CCCCC4)cc4c3c2C=NNC4=O)cn1 when tested on Protein-tyrosine kinase 2-beta (Homo sapiens). Also: in the data inactive means no Kd found up to 30 µM.
> 30 µM (inactive)
